assay: Anticancer human tumor 997537-175-T-J1-PDC patient-derived colon adenocarcinoma cell line growth inhibition [POLQ]
conditionInfo: 997537-175-T-J1-PDC complex spheroid viability, combination with POLQ inhibitors; second compound 10 µM; first compound 1 µM; stronger effect = lower value
assayReadout: viability, T/C (%)
State just the number; it will be interpreted in %.

Take a look at these entries with their results.
molecule	viability, T/C, %
COc1cccc2c1C(=O)c1c(O)c3c(c(O)c1C2=O)CC(O)(C(=O)CO)CC3OC1CC(N)C(O)C(C)O1 (stereo not given) + Cc1cccc(N(C)C(=O)C2C(O)CCN2c2nc(C)cc(C(F)(F)F)c2C#N)c1	56.2
CC1COCCN1c1cc(-c2ccnn2C)c2ccnc(-c3ccn[nH]3)c2n1 (stereo not given) + COC1C(OC(N)=O)C(O)C(Oc2ccc3c(O)c(NC(=O)c4ccc(O)c(CC=C(C)C)c4)c(=O)oc3c2C)OC1(C)C	54

Data request: Give the reported value of viability, T/C for this record: O=C(Nc1ccc(O)c(NS(=O)(=O)c2ccc(F)cc2)c1)c1ccc(-c2ccccc2)cc1 + COC1C(OC(N)=O)C(O)C(Oc2ccc3c(O)c(NC(=O)c4ccc(O)c(CC=C(C)C)c4)c(=O)oc3c2C)OC1(C)C
Data returned: 91.5

Data request: Give the reported value of viability, T/C for this record: Nc1ccn(C2OC(CO)C(O)C2(F)F)c(=O)n1 (stereo not given) + Cc1cccc(N(C)C(=O)C2C(O)CCN2c2nc(C)cc(C(F)(F)F)c2C#N)c1
Data returned: 86.9

Data request: Fill in reported viability, T/C for this entry: CCc1cc2c(N3CCc4c(cc(Cn5ccnc5)cc4-c4cn(C)nc4C(F)(F)F)C3=O)ccnc2c(OC)n1 + Cc1cccc(N(C)C(=O)C2C(O)CCN2c2nc(C)cc(C(F)(F)F)c2C#N)c1
Data returned: 67.1

Data request: Entry CC1COCCN1c1cc(C2(O)CC3CCC(C2)O3)c2cnn(-c3ccn[nH]3)c2n1 (stereo not given) + COC1C(OC(N)=O)C(O)C(Oc2ccc3c(O)c(NC(=O)c4ccc(O)c(CC=C(C)C)c4)c(=O)oc3c2C)OC1(C)C needs its viability, T/C filled in; supply it.
Data returned: 58.3

Data request: Read off the recorded viability, T/C for O=C(Nc1ccc(O)c(NS(=O)(=O)c2ccc(F)cc2)c1)c1ccc(-c2ccccc2)cc1 + Cc1cccc(N(C)C(=O)C2C(O)CCN2c2nc(C)cc(C(F)(F)F)c2C#N)c1
Data returned: 93

Data request: Given the molecule COc1cccc2c1C(=O)c1c(O)c3c(c(O)c1C2=O)CC(O)(C(=O)CO)CC3OC1CC(N)C(O)C(C)O1 (stereo not given) + COC1C(OC(N)=O)C(O)C(Oc2ccc3c(O)c(NC(=O)c4ccc(O)c(CC=C(C)C)c4)c(=O)oc3c2C)OC1(C)C , write its reported viability, T/C.
Data returned: 97.4

Data request: For the molecule Nc1ccn(C2OC(CO)C(O)C2(F)F)c(=O)n1 (stereo not given) + Nc1ccc(C#CCN(C(=O)Cc2ncc(C(F)(F)F)cc2C(F)(F)F)c2ccc(F)cc2)nn1 , give its measured viability, T/C value.
Data returned: 94.1

Data request: # return recorded viability, T/C for entry CCc1cc2c(N3CCc4c(cc(Cn5ccnc5)cc4-c4cn(C)nc4C(F)(F)F)C3=O)cc(C)nc2c(OC)n1 + Nc1ccc(C#CCN(C(=O)Cc2ncc(C(F)(F)F)cc2C(F)(F)F)c2ccc(F)cc2)nn1
Data returned: 96.8

###

assay: Anticancer human tumor 997537-175-T-J1-PDC cell line growth inhibition [POLQ];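 further: luminescence signal used as a surrogate for viable cells; spheroids exposed to drugs for seven days before readout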
conditionInfo: 997537-175-T-J1-PDC complex spheroid viability, combination with POLQ inhibitors; second compound 10 µM; first compound 0.316 µM; stronger effect = lower value
assayReadout: viability, T/C (%)
Respond with the bare value in %.

molecule	endpointUnit	viability, T/C
Nc1ccn(C2OC(CO)C(O)C2(F)F)c(=O)n1 (stereo unspecified) + Cc1cccc(N(C)C(=O)C2C(O)CCN2c2nc(C)cc(C(F)(F)F)c2C#N)c1	%	96.6
CC(C)n1c(=O)n(C)c2cnc3cc(F)c(-c4ccc(OCCCN5CCCCC5)nc4)cc3c21 + Cc1cccc(N(C)C(=O)C2C(O)CCN2c2nc(C)cc(C(F)(F)F)c2C#N)c1	%	86.8

Data request: Give the reported viability, T/C for this molecule. COc1ccc([C@@H](O)c2cc(-c3ncnc4cc(N5CCOCC5)ccc34)c(F)cc2Cl)nn1 + Cc1cccc(N(C)C(=O)C2C(O)CCN2c2nc(C)cc(C(F)(F)F)c2C#N)c1
Data returned: 110

Data request: State its viability, T/C: CCCS(=O)(=O)Nc1ccc(F)c(C(=O)c2c[nH]c3ncc(-c4ccc(Cl)cc4)cc23)c1F + Cc1cccc(N(C)C(=O)C2C(O)CCN2c2nc(C)cc(C(F)(F)F)c2C#N)c1
Data returned: 86.1

Data request: Look up and state reported viability, T/C for COc1cc2cc(C(=O)CCC(=O)O)sc2cc1OC + Nc1ccc(C#CCN(C(=O)Cc2ncc(C(F)(F)F)cc2C(F)(F)F)c2ccc(F)cc2)nn1
Data returned: 106

Data request: Report measured viability, T/C; entry is CCc1cc2c(N3CCc4c(cc(Cn5ccnc5)cc4-c4cn(C)nc4C(F)(F)F)C3=O)ccnc2c(OC)n1 + COC1C(OC(N)=O)C(O)C(Oc2ccc3c(O)c(NC(=O)c4ccc(O)c(CC=C(C)C)c4)c(=O)oc3c2C)OC1(C)C
Data returned: 93.2

###

assay: Anticancer human tumor 997537-175-T-J1-PDC cell line growth inhibition [POLQ];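 further: luminescence signal used as a surrogate for viable cells; spheroids exposed to drugs for seven days before readout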
conditionInfo: 997537-175-T-J1-PDC complex spheroid viability, combination with POLQ inhibitors; second compound 10 µM; first compound 1 µM; stronger effect = lower value
assayReadout: viability, T/C (%)
Give a bare numeral; the unit % is implied.

Consider the worked cases shown below.
compound	numericValue
COc1ccc([C@@H](O)c2cc(-c3ncnc4cc(N5CCOCC5)ccc34)c(F)cc2Cl)nn1 + COC1C(OC(N)=O)C(O)C(Oc2ccc3c(O)c(NC(=O)c4ccc(O)c(CC=C(C)C)c4)c(=O)oc3c2C)OC1(C)C	83.6
CC(C)n1c(=O)n(C)c2cnc3cc(F)c(-c4ccc(OCCCN5CCCCC5)nc4)cc3c21 + Nc1ccc(C#CCN(C(=O)Cc2ncc(C(F)(F)F)cc2C(F)(F)F)c2ccc(F)cc2)nn1	101
O=C(c1cc(Cc2n[nH]c(=O)c3ccccc23)ccc1F)N1CCN(C(=O)C2CC2)CC1 + Nc1ccc(C#CCN(C(=O)Cc2ncc(C(F)(F)F)cc2C(F)(F)F)c2ccc(F)cc2)nn1	91.3
C#Cc1c(F)ccc2cc(O)cc(-c3ncc4c(N5CC6CCC(C5)N6)nc(OCC56CCCN5CC(F)C6)nc4c3F)c12 (stereo not given) + Cc1cccc(N(C)C(=O)C2C(O)CCN2c2nc(C)cc(C(F)(F)F)c2C#N)c1	119

API: the following record is the query input.
Data request: Item CC(C)n1c(=O)n(C)c2cnc3cc(F)c(-c4ccc(OCCCN5CCCCC5)nc4)cc3c21 + COC1C(OC(N)=O)C(O)C(Oc2ccc3c(O)c(NC(=O)c4ccc(O)c(CC=C(C)C)c4)c(=O)oc3c2C)OC1(C)C : provide viability, T/C
Data returned: 82.6

###

assay: Anticancer human tumor 997537-175-T-J1-PDC cell line growth inhibition [POLQ];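 further: luminescence signal used as a surrogate for viable cells; spheroids exposed to drugs for seven days before readout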
conditionInfo: 997537-175-T-J1-PDC complex spheroid viability, combination with POLQ inhibitors; second compound 1 µM; first compound 0.316 µM; stronger effect = lower value
assayReadout: viability, T/C (%)
# output: bare number, implied unit %

molecule	endpointUnit	viability, T/C
O=C(c1cc(Cc2n[nH]c(=O)c3ccccc23)ccc1F)N1CCN(C(=O)C2CC2)CC1 + Cc1cccc(N(C)C(=O)C2C(O)CCN2c2nc(C)cc(C(F)(F)F)c2C#N)c1	%	109

Data request: Quote viability, T/C reported for CCCS(=O)(=O)Nc1ccc(F)c(C(=O)c2c[nH]c3ncc(-c4ccc(Cl)cc4)cc23)c1F + Cc1cccc(N(C)C(=O)C2C(O)CCN2c2nc(C)cc(C(F)(F)F)c2C#N)c1 please.
Data returned: 85.9

Data request: Give reported viability, T/C value for O=c1[nH]cc(F)c(=O)[nH]1 + Nc1ccc(C#CCN(C(=O)Cc2ncc(C(F)(F)F)cc2C(F)(F)F)c2ccc(F)cc2)nn1
Data returned: 83.7

Data request: Give viability, T/C for COc1cccc(OCCCN)c1-c1cc(Nc2cnc(C#N)cn2)n[nH]1 + COC1C(OC(N)=O)C(O)C(Oc2ccc3c(O)c(NC(=O)c4ccc(O)c(CC=C(C)C)c4)c(=O)oc3c2C)OC1(C)C
Data returned: 23.2

Data request: Using known records, supply viability, T/C for COc1cc2cc(C(=O)CCC(=O)O)sc2cc1OC + Cc1cccc(N(C)C(=O)C2C(O)CCN2c2nc(C)cc(C(F)(F)F)c2C#N)c1
Data returned: 105

Data request: Input C=CC(=O)N1CCN(c2nc(=O)n(-c3c(C)ccnc3C(C)C)c3nc(-c4c(O)cccc4F)c(F)cc23)C(C)C1 (stereo unspecified) + Nc1ccc(C#CCN(C(=O)Cc2ncc(C(F)(F)F)cc2C(F)(F)F)c2ccc(F)cc2)nn1 , output reported viability, T/C.
Data returned: 109

Data request: Specify reported viability, T/C for the molecule shown: COc1cccc2c1C(=O)c1c(O)c3c(c(O)c1C2=O)CC(O)(C(=O)CO)CC3OC1CC(N)C(O)C(C)O1 (stereo unspecified) + Nc1ccc(C#CCN(C(=O)Cc2ncc(C(F)(F)F)cc2C(F)(F)F)c2ccc(F)cc2)nn1
Data returned: 81.8
